system: Mus musculus; assay: Hypnotic activity in po dosed mouse assessed as increase in pentylenetetrazol-induced persistent-convulsive threshold; assay type: functional, organism-based
Activity calls are given as the source filed them.
# valid calls are active, inactive; nothing else

Use the examples below as a reference point.
# compound, category_label
measured = [
    ("CN1CCCCC/C1=N\\C(=O)Nc1c(Cl)cccc1Cl", "inactive"),
    ("O=C(/N=C1\\CCCN1Cc1ccccc1)Nc1c(Cl)cccc1Cl", "inactive"),
    ("Cc1cccc(C)c1NC(=O)/N=C1\\CC(c2ccccc2)CN1C (stereo not given)", "inactive"),
    ("O=C(/N=C1\\CCCN1Cc1ccccc1)Nc1cccc(Cl)c1", "inactive"),
    ("Cc1cccc(C)c1NC(=O)/N=C1\\CCCCCN1C", "inactive"),
    ("CN1CCCCC/C1=N\\C(=O)Nc1ccccc1", "inactive"),
    ("O=C(/N=C1\\CCCCCN1)Nc1ccccc1", "inactive"),
    ("CN1CCC/C1=N\\C(=S)Nc1ccc([N+](=O)[O-])cc1", "inactive"),
    ("Cc1cccc(C)c1NC(=O)/N=C1\\CCCN1Cc1ccccc1", "inactive"),
]

Moving on to the next compound.
Hi, sorry to bother you, what did the test record for CCOc1ccccc1NC(=O)/N=C1\CCCN1C ? active
